experimental target: DLK (Homo sapiens, UniProt Q12852)
Sequence (Q12852 1-520): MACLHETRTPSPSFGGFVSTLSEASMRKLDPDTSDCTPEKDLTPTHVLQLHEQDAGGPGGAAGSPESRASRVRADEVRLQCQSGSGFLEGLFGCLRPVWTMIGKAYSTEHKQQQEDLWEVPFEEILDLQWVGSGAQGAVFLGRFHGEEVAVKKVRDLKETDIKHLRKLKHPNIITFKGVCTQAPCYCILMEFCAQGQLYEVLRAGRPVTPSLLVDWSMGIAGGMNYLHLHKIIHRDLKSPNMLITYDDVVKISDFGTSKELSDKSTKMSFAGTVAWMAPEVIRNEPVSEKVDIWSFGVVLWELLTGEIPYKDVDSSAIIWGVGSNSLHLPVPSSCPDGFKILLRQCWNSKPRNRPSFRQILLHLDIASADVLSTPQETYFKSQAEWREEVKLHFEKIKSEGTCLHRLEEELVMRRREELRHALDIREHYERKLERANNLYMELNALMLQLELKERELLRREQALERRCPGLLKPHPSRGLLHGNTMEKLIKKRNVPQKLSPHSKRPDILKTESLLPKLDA
measurement conditions: read-out: DLK (Ki) μM; TR-FRET; 5 nM GST-tagged DLK (catalytic domain aa 1-520), 40 nM HIS-MKK4 K131M substrate, 30 μM ATP, 60 minutes
Threshold-based label: Ki under 0.08 µM gives class 1, Ki not under 0.08 µM gives class 0.

Lookup: Does this molecule meet the criterion Ki < 0.08 µM? CC(C)n1nc(-c2cnc(N)c(OC(F)(F)F)c2)cc1C(C)(C)C#N
Found: class 0

Lookup: Does this molecule meet the criterion Ki < 0.08 µM? Nc1ncc(-c2cc(C3CCN(C4COC4)CC3)n(C3CCCC3)n2)cc1C(F)(F)F
Found: class 0

Lookup: Does this molecule meet the criterion Ki < 0.08 µM? Nc1ncc(-c2cc([C@H]3[C@@H]4CN(C5COC5)C[C@@H]43)n(C3CCCC3)n2)cc1C(F)F
Found: class 1

Lookup: Does this molecule meet the criterion Ki < 0.08 µM? Nc1ncc(-c2cc([C@H]3[C@@H]4CN(C5COC5)C[C@@H]43)n(CC(F)(F)F)n2)cc1C(F)(F)F
Found: class 1

Lookup: Does this molecule meet the criterion Ki < 0.08 µM? COc1cc(-c2cc(C3CCN(C4COC4)CC3)n(C3CCCC3)n2)cnc1N
Found: class 0
